Molecular target: human CD40 on cells (human, UniProt P25942 21-277)
Sequence (P25942 21-277): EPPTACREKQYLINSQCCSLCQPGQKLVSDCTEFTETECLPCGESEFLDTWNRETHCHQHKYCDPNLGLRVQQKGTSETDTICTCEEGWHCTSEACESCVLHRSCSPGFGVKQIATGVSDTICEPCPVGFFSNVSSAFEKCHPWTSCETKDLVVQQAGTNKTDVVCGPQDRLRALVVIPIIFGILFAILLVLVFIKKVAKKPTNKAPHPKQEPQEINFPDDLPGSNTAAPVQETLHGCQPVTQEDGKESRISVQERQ
Assay: cell-based or functional assay
Entries and their Activation of B cells, EC50 (proliferation of CD19+ B cells, Cell titer-Glo)
Enter your answer as a number in µg/mL; do not include the unit.

Guide cases for Activation of B cells, EC50 (proliferation of CD19+ B cells, Cell titer-Glo), answers given:
- Binder: "Antibody clone F9 (antibody, human IgG1, lambda, V domains shown) VH: EVQLLESGGGLVQPGGSLRLSCAASGFTFSTYGMHWVRQAPGKGLEWLSYISGGSSYIFYADSVRGRFTISRDNSENALYLQMNSLRAEDTAVYYCARILRGGSGMDLWGQGTLVTVSS VL: QSVLTQPPSASGTPGQRVTISCTGSSSNIGAGYGVYWYQQLPGTAPKLLIYGNINRPSGVPDRFSGSKSGTSASLAISGLRSEDEADYYCAAWDGTLTGLLFGGGTKLTVLG"
  Recorded result: 0.21
- Binder: "Antibody clone A5 (antibody, human IgG1, lambda, V domains shown) VH: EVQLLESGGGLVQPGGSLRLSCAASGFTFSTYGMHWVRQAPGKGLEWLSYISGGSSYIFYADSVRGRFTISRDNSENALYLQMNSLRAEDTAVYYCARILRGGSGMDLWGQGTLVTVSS VL: QSVLTQPPSASGTPGQRVTISCTGSSSNIGAGYHVYWYQQLPGTAPKLLIYGSINRPSGVPDRFSGSKSGTSGSLAISGLRSEDEADYYCAAWDSSSSGLVFGGGTKLTVLG"
  Recorded result: 0.29

What measured Activation of B cells, EC50 (proliferation of CD19+ B cells, Cell titer-Glo) goes with Antibody clone A4 (antibody, human IgG1, lambda, V domains shown, Tested as purified antibody; full chains are assembled here from VH/VL plus these; also called A4 ANTI-CD40 ANTIBODY) VH: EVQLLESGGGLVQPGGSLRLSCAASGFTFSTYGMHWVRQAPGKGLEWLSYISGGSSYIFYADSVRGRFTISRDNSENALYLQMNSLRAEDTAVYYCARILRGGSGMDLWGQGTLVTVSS VL: QSVLTQPPSASGTPGQRVTISCTGSTSNIGAGYKVYWYQQLPGTAPKLLIYGNINRPSGVPDRFSGSKSGTSASLAISGLRSEDEADYYCAAWDDSLSGLVFGGGTKLTVLG ? 0.16

Data credit: patent US20140348836A1
